The measurements presented in this section are drawn from patent US20100234377A1.

# pIC50 listing for each entry below
assayedTarget: human Prostaglandin D Synthase (GST2) (Homo sapiens, UniProt O60760)
Construct: the open reading frame of human Prostaglandin D Synthase was amplified from cDNA; made in house; host or cells: E. coli TOP10F'
Sequence (O60760 whole entry): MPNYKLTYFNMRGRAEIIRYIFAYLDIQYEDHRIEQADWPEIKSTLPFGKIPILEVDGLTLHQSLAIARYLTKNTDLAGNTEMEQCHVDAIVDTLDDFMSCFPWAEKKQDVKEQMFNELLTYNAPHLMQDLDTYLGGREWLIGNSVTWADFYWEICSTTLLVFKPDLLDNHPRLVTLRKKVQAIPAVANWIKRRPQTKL
methodSummary: Homogeneous biochemical assay of human Prostaglandin D Synthase (GST2) based on its glutathion-S-transferase activity (GSH conjugation to monochlorobimane, fluorescence)
conditionsUsed: given beside the compound name in Examples 1 to 167; read-out: Potency Range (GST2 IC50)
Excerpt: Homogeneous, Biochemical Assay Monitoring the Activity of Human Prostaglandin D Synthase Based on the Glutathion-S-Transferase Activity of the Enzyme Prostaglandin D2 synthesis by Prostaglandin D synthase (GST2) requires transfer of Glutathion (GSH) to the substrate, Prostaglandin H2. […] Therefore, the enzymatic reaction can be monitored by total fluorescence measurement. In brief, the open reading frame of human Prostaglandin D Synthase was amplified from cDNA using the primer pair: […]
pIC50: −log10 of the molar value.
readoutName: pIC50

[[record]]
molecule = "O=C(Nc1cccc(NS(=O)(=O)C2CC2)c1)N1CCN(C(=O)c2cccc(F)c2)CC1 [Compound 131]"
readoutname = "pIC50"
measuredvalue = "6.00 to 7.00"

[[record]]
molecule = "O=C(Nc1nc2ccc(Cl)cc2s1)N1CCN(C(=O)c2cccc(F)c2)CC1 [Compound 82]"
readoutname = "pIC50"
measuredvalue = "8.00 to 9.00"

[[record]]
molecule = "Cc1nccc(-c2cccc(NC(=O)N3CCN(C(=O)c4cccc(F)c4)CC3)c2)n1 [Compound 78]"
readoutname = "pIC50"
measuredvalue = "7.00 to 7.96"

[[record]]
molecule = "NC(=O)c1ccc2nc(NC(=O)N3CCN(C(=O)c4cccc(F)c4)CC3)sc2c1 [Compound 141]"
readoutname = "pIC50"
measuredvalue = "7.00 to 7.96"

[[record]]
molecule = "O=C(Nc1ccc([N+](=O)[O-])c(F)c1)N1CCN(C(=O)c2cccc(F)c2)CC1 [Compound 134]"
readoutname = "pIC50"
measuredvalue = "6.00 to 7.00"

[[record]]
molecule = "O=C(Nc1nc2ccccc2s1)N1CCN(C(=O)c2cccc(F)c2)CC1 [Compound 65]"
readoutname = "pIC50"
measuredvalue = "7.00 to 7.96"

[[record]]
molecule = "O=C(Nc1nc2ccc(C(=O)N3CCOCC3)cc2s1)N1CCN(C(=O)c2cccc(F)c2)CC1 [Compound 139]"
readoutname = "pIC50"
measuredvalue = "7.00 to 7.96"

[[record]]
molecule = "O=C(Nc1ccc(NS(=O)(=O)c2ccccc2)cc1)N1CCN(C(=O)c2cccc(F)c2)CC1 [Compound 125]"
readoutname = "pIC50"
measuredvalue = "7.00 to 7.96"


====

assayedTarget: human Prostaglandin D Synthase (GST2) (Homo sapiens)
Construct: the open reading frame of human Prostaglandin D Synthase was amplified from cDNA; made in house; host or cells: E. coli TOP10F'
methodSummary: Homogeneous biochemical assay of human Prostaglandin D Synthase (GST2) based on its glutathion-S-transferase activity (GSH conjugation to monochlorobimane, fluorescence)
conditionsUsed: given beside the compound name in Examples 1 to 167; read-out: Potency Range (GST2 IC50)
pIC50: −log10 of the molar value.
# pIC50 listing for each entry below
readoutName: pIC50

[[record]]
compound = "O=C(Nc1nc2ccc(OC(F)(F)F)cc2s1)N1CCN(C(=O)c2cccc(F)c2)CC1 [Compound 67]"
assayedtarget = "human Prostaglandin D Synthase (GST2) (Homo sapiens)"
measuredvalue = "7.00 to 7.96"

[[record]]
compound = "O=C(Nc1ccc(N2CCN(c3ccccn3)CC2)c(F)c1)N1CCN(C(=O)c2cccc(F)c2)CC1 [Compound 146]"
assayedtarget = "human Prostaglandin D Synthase (GST2) (Homo sapiens)"
measuredvalue = "7.00 to 7.96"

[[record]]
compound = "O=C(c1ccccc1)N1CCN(C(=S)Nc2ccc(F)cc2)CC1 [Compound 4]"
assayedtarget = "human Prostaglandin D Synthase (GST2) (Homo sapiens)"
measuredvalue = "6.00 to 7.00"

[[record]]
compound = "CC(C)NC(=O)N1CCN(c2ccc(NC(=O)N3CCN(C(=O)c4cccc(F)c4)CC3)cc2F)CC1 [Compound 52]"
assayedtarget = "human Prostaglandin D Synthase (GST2) (Homo sapiens)"
measuredvalue = "7.00 to 7.96"

[[record]]
compound = "CC(C)C(=O)N1CCN(c2ccc(NC(=O)N3CCN(C(=O)c4cccc(F)c4)CC3)cc2F)CC1 [Compound 57]"
assayedtarget = "human Prostaglandin D Synthase (GST2) (Homo sapiens)"
measuredvalue = "7.00 to 7.96"

[[record]]
compound = "Cc1ccc2nc(NC(=O)N3CCN(C(=O)c4cccc(F)c4)CC3)sc2c1 [Compound 80]"
assayedtarget = "human Prostaglandin D Synthase (GST2) (Homo sapiens)"
measuredvalue = "8.00 to 9.00"

[[record]]
compound = "O=C(Nc1ccc(C(F)(F)F)cc1)N1CCN(C(=O)c2ccccc2)CC1 [Compound 164]"
assayedtarget = "human Prostaglandin D Synthase (GST2) (Homo sapiens)"
measuredvalue = "7.00 to 7.96"

[[record]]
compound = "Nc1cccc(NC(=O)N2CCN(C(=O)c3cccc(F)c3)CC2)c1 [Compound 106]"
assayedtarget = "human Prostaglandin D Synthase (GST2) (Homo sapiens)"
measuredvalue = "6.00 to 7.00"

